Molecular target: AURKB (MV4-11^AURKB-HiBiT cells) (Homo sapiens)
Construct: expressed in transfected cells; host or cells: MV4-11, lentiviral transduction (pRRL-PGK vector)
Sequence (Q96GD4 1-345 isoform Q96GD4-5): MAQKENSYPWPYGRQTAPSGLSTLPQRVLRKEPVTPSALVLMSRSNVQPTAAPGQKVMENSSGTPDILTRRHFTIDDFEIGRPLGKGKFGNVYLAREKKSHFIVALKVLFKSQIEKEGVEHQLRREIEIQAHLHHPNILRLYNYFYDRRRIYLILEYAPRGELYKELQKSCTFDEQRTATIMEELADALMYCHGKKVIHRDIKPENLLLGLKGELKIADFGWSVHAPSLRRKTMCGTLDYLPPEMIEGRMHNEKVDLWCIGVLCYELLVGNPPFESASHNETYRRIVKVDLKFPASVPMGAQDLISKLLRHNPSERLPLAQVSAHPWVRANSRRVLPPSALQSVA
Test: HiBiT assay, AURKB degradation
Type: cell-based
Settings: 6 h treatment
Sorting guide: entries reporting Dmax (maximal degradation) AURKB beneath 30% go in the YES pile, the rest go in the NO pile.

INSERT INTO assay_data (molecule, assigned_category) VALUES
  ('Cc1ncsc1-c1ccc(CNC(=O)[C@@H]2C[C@@H](O)CN2C(=O)[C@@H](NC(=O)CCCC(=O)N2CCN(c3ccc(Nc4nc(NC5CCCCC5)c5nc[nH]c5n4)cc3)CC2)C(C)(C)C)cc1 [Compound 43]', 'NO'),
  ('CC(C)S(=O)(=O)c1ccccc1Nc1nc(Nc2ccc(N3CCN(CCCCC(=O)Nc4cccc5c4C(=O)N(C4CCC(=O)NC4=O)C5=O)CC3)cc2)nc2[nH]cnc12 (centres unmarked) [Compound 28]', 'NO'),
  ('CC(C)S(=O)(=O)c1ccccc1Nc1nc(Nc2ccc(N3CCN(C(=O)CNC(=O)CCCC(=O)Nc4cccc5c4C(=O)N(C4CCC(=O)N(C)C4=O)C5=O)CC3)cc2)nc2[nH]cnc12 (centres unmarked) [Compound 24]', 'YES'),
  ('Cc1ncsc1-c1ccc(CNC(=O)[C@@H]2C[C@@H](O)CN2C(=O)[C@@H](NC(=O)CCCC(=O)N2CCN(c3ccc(Nc4nc(Nc5ccccc5S(=O)(=O)C(C)C)c5nc[nH]c5n4)cc3)CC2)C(C)(C)C)cc1 [Compound 44]', 'YES');

---

Target: AURKA (MV4-11^AURKA-HiBiT cells) (Homo sapiens, UniProt O14965)
Construct: expressed in transfected cells; host or cells: MV4-11, lentiviral transduction
Sequence (O14965 whole entry): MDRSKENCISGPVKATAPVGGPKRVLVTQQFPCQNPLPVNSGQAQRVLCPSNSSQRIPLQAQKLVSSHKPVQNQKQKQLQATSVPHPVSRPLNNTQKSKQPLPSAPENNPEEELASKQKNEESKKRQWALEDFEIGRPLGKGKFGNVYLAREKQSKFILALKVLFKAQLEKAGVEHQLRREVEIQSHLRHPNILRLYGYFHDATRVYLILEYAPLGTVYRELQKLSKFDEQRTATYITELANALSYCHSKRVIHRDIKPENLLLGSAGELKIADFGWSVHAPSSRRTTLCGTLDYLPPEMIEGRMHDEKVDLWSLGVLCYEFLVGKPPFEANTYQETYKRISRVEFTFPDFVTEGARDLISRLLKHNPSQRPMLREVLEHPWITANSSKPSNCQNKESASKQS
Experiment: HiBiT assay, AURKA degradation
Format: cell-based
Settings: 6 h treatment, MV4-11^AURKA-HiBiT cells
Label condition met for high-side Dmax (maximal degradation) AURKA (at or above 40%) and condition not met for low-side Dmax (maximal degradation) AURKA (below it).

INSERT INTO assay_data (molecule, assigned_category) VALUES
  ('CC(C)S(=O)(=O)c1ccccc1Nc1nc(Nc2ccc(N3CCN(C(=O)CNC(=O)CCCC(=O)Nc4cccc5c4C(=O)N(C4CCC(=O)N(C)C4=O)C5=O)CC3)cc2)nc2[nH]cnc12 (centres unmarked) [Compound 24]', 'condition not met'),
  ('CC(C)S(=O)(=O)c1ccccc1Nc1nc(Nc2ccc(N3CCN(CCCCC(=O)Nc4cccc5c4C(=O)N(C4CCC(=O)NC4=O)C5=O)CC3)cc2)nc2[nH]cnc12 (centres unmarked) [Compound 28]', 'condition met'),
  ('Cc1ncsc1-c1ccc(CNC(=O)[C@@H]2C[C@@H](O)CN2C(=O)[C@@H](NC(=O)CCC(=O)NCC(=O)N2CCN(c3ccc(Nc4nc(Nc5ccccc5S(=O)(=O)C(C)C)c5nc[nH]c5n4)cc3)CC2)C(C)(C)C)cc1 [Compound 47]', 'condition not met'),
  ('O=C(CCCC(=O)Nc1cccc2c1C(=O)N(C1CCC(=O)NC1=O)C2=O)NCC(=O)N1CCN(c2ccc(Nc3nc(NC4CCCCC4)c4nc[nH]c4n3)cc2)CC1 (centres unmarked) [Compound 19]', 'condition met'),
  ('CC(C)S(=O)(=O)c1ccccc1Nc1nc(Nc2ccc(N3CCN(CC(=O)Nc4cccc5c4C(=O)N(C4CCC(=O)NC4=O)C5=O)CC3)cc2)nc2[nH]cnc12 (centres unmarked) [Compound 26]', 'condition not met'),
  ('CC(C)S(=O)(=O)c1ccccc1Nc1nc(Nc2ccc(N3CCN(C(=O)CCC(=O)Nc4cccc5c4C(=O)N(C4CCC(=O)NC4=O)C5=O)CC3)cc2)nc2[nH]cnc12 (centres unmarked) [Compound 15]', 'condition met'),
  ('CC(C)S(=O)(=O)c1ccccc1Nc1nc(Nc2ccc(N3CCN(C(=O)CCCC(=O)Nc4cccc5c4C(=O)N(C4CCC(=O)NC4=O)C5=O)CC3)cc2)nc2[nH]cnc12 (centres unmarked) [Compound 14]', 'condition met'),
  ('O=C1CCC(N2C(=O)c3cccc(NC(=O)COCCOCC(=O)N4CCN(c5ccc(Nc6nc(NC7CCCCC7)c7nc[nH]c7n6)cc5)CC4)c3C2=O)C(=O)N1 (centres unmarked) [Compound 17]', 'condition met'),
  ('Cc1ncsc1-c1ccc(CNC(=O)[C@@H]2C[C@@H](O)CN2C(=O)[C@@H](NC(=O)CCCC(=O)N2CCN(c3ccc(Nc4nc(Nc5ccccc5S(=O)(=O)C(C)C)c5nc[nH]c5n4)cc3)CC2)C(C)(C)C)cc1 [Compound 44]', 'condition not met'),
  ('Cc1ncsc1-c1ccc(CNC(=O)[C@@H]2C[C@@H](O)CN2C(=O)[C@@H](NC(=O)COCCOCC(=O)N2CCN(c3ccc(Nc4nc(Nc5ccccc5S(=O)(=O)C(C)C)c5nc[nH]c5n4)cc3)CC2)C(C)(C)C)cc1 [Compound 49]', 'condition not met');
